Measured TGI accompanies every entry in the list below.
Test system: NCI-H226 lung
MEASUREMENT DESCRIPTION: NCI tumour cell line growth inhibition, 48 h

O=C(O)c1cc2ccccc2c(N=Nc2ccc(S(=O)(=O)Nc3nccs3)cc2)c1O    > 100 µM
CN(C)CCNC(=O)c1cccc2c(NCCN(C)C)c3ccccc3nc12    3.66 µM
COc1cc2c(cc1OC)C(C(CO)CO)N(CC(O)CCl)CC2 (stereo not drawn)    > 100 µM
CCCCc1ccc(Nc2nc3c(ncn3C3CC(O)C(CN=[N+]=[N-])O3)c(=O)[nH]2)cc1 (stereo not drawn)    > 100 µM
COC(=O)C1=C(C(=O)OC)C(C(=O)c2ccc(Br)cc2)N2N=C(c3ccc(Cl)cc3)C=CC12 (stereo not drawn)    > 100 µM
CCOC(=O)c1sc(-c2ccc(OS(=O)(=O)c3ccc(Br)s3)c(C=O)c2)nc1C    23.1 µM

Challenge: Query: TGI; subject: CC(=O)[C@@]1(C)CC2(CCN(C)CC2)OC1C (stereo partly drawn)
Response given: > 100 µM

Challenge: Query: TGI; subject: CC(C)/C(Cl)=N\OC(=O)Nc1ccccc1F
Response given: 28.8 µM

Challenge: Query: TGI; subject: CC(=O)OCCCOCn1c(Cc2ccccc2)c(C)c(=O)[nH]c1=O
Response given: > 100 µM

Challenge: Query: TGI; subject: Oc1ccc(-c2nc(-c3cccnc3)c(-c3ccc(Cl)cc3)[nH]2)cc1O
Response given: 37.1 µM
